assay text: Plasma stability assay
Format: in vitro ADME
protocol conditions: 1 μM, 37° C.
value type: Mean % remaining at 2 hrs in human Plasma (%)

// query For CC(C)[N+](C)(CCOC(=O)C1c2ccccc2Oc2ccccc21)C(C)C [Propantheline, reference compound] , what is its reported Mean % remaining at 2 hrs in human Plasma?
// result 1.70

// query For `COCCn1c(=O)c2cc(NC(=O)Nc3cccc(C(C)=O)c3)ccc2n(C(C)C)c1=O` , what is its reported Mean % remaining at 2 hrs in human Plasma?
// result 80.80

// query For `COCCn1c(=O)c2cc(NC(=O)Nc3cccc(C(C)=O)c3)ccc2n(CCN2CCOCC2)c1=O` , what is its reported Mean % remaining at 2 hrs in human Plasma?
// result 48.20

// query For `COCCn1c(=O)c2cc(NC(=O)Nc3cccc(C(C)=O)c3)ccc2n(CCN2CCCCC2)c1=O` , what is its reported Mean % remaining at 2 hrs in human Plasma?
// result 26.18

// query For `COCCn1c(=O)c2cc(NC(=O)Nc3cccc(C(C)=O)c3)ccc2n(CCN2CCCC2)c1=O` , what is its reported Mean % remaining at 2 hrs in human Plasma?
// result 32.80

(A) COCCn1c(=O)[nH]c2ccc(NC(=O)Nc3cccc(C(C)=O)c3)cc2c1=O
(B) COCCn1c(=O)c2cc(NC(=O)Nc3cccc(C(C)=O)c3)ccc2n(CCCN2CCOCC2)c1=O
// query // which entry has the larger Mean % remaining at 2 hrs in human Plasma value, A or B ? Lab note: record the label of whichever item you select.
// result A

* * *

assay text: Kinetic solubility
Assay type: physicochemical
protocol conditions: pH 7.4 phosphate buffer (PBS), aqueous buffer, kinetic from dmso stock, room temperature, 1.0% DMSO
value type: solubility kinetic at 24 hours (µg/mL)

# annotated cases, reported solubility kinetic at 24 hours shown
// query For COCCn1c(=O)c2cc(NC(=O)Nc3cccc(C(C)=O)c3)ccc2n(C(C)C)c1=O [Compound 11] , what is its reported solubility kinetic at 24 hours?
// result 2.8

// query For COCCn1c(=O)[nH]c2ccc(NC(=O)Nc3cccc(C(C)=O)c3)cc2c1=O [Compound 5] , what is its reported solubility kinetic at 24 hours?
// result 0.8

// query For COCCn1c(=O)c2cc(NC(=O)Nc3cccc(C(C)=O)c3)ccc2n(CCCN2CCOCC2)c1=O [Compound 94] , what is its reported solubility kinetic at 24 hours?
// result 89.9

// query For COCCn1c(=O)c2cc(NC(=O)Nc3cccc(C(C)=O)c3)ccc2n(CCN2CCCC2)c1=O [Compound 59] , what is its reported solubility kinetic at 24 hours?
// result 124

(A) COCCn1c(=O)c2cc(NC(=O)Nc3cccc(C(C)=O)c3)ccc2n(CCN2CCCCC2)c1=O [Compound 62]
(B) COCCn1c(=O)c2cc(NC(=O)Nc3cccc(C(C)=O)c3)ccc2n(CCN2CCOCC2)c1=O [Compound 65]
// query // which entry has the larger solubility kinetic at 24 hours value, A or B ? Lab note: record the label of whichever item you select.
// result A
(A: 116 µg/mL, B: 20.8 µg/mL)

* * *

assay text: Metabolic stability using human liver microsomes (HLM)
Assay type: in vitro ADME
value type: % QH (Well stirred model) (%)

# annotated cases, reported % QH (Well stirred model) shown
// query For `COCCn1c(=O)c2cc(NC(=O)Nc3cccc(C(C)=O)c3)ccc2n(CCN2CCCCC2)c1=O` , what is its reported % QH (Well stirred model)?
// result 56.74

// query For `COCCn1c(=O)c2cc(NC(=O)Nc3cccc(C(C)=O)c3)ccc2n(CCN2CCCC2)c1=O` , what is its reported % QH (Well stirred model)?
// result 17.46

// query For `COCCn1c(=O)c2cc(NC(=O)Nc3cccc(C(C)=O)c3)ccc2n(CCCN2CCOCC2)c1=O` , what is its reported % QH (Well stirred model)?
// result 59.60

// query For `COCCn1c(=O)c2cc(NC(=O)Nc3cccc(C(C)=O)c3)ccc2n(C(C)C)c1=O` , what is its reported % QH (Well stirred model)?
// result 40.30

(1) COCCn1c(=O)[nH]c2ccc(NC(=O)Nc3cccc(C(C)=O)c3)cc2c1=O
(2) COCCn1c(=O)c2cc(NC(=O)Nc3cccc(C(C)=O)c3)ccc2n(CCN2CCOCC2)c1=O
// query Of 1 versus 2 , which is the one with smaller reported % QH (Well stirred model)? Lab note: record the label of whichever item you select.
// result 1
(1: 7.60%, 2: 62.0%)

* * *

assay text: Lipophilicity assay (octanol/buffer Log D)
Assay type: physicochemical
protocol conditions: pH 7.4, n-octanol/sodium phosphate buffer
Method: 1.56 g NaH2PO4·2H2O was dissolved in 0.5 L water in a 1 L beaker. After adjusting pH to 7.4 using NaOH solution, the volume was made up to 1 L. Equal volumes of sodium phosphate buffer (10 mM, pH 7.4) and n-octanol were added to a separation funnel and mixed thoroughly by shaking and inverting the funnel several times. […] After incubation, the samples were allowed to equilibrate for 20 min and then centrifuged at 4000 rpm for 30 min for complete phase separation and analysed by LC-UV. […]
value type: LogD @ pH 7.4

# annotated cases, reported LogD @ pH 7.4 shown
// query For COCCn1c(=O)[nH]c2ccc(NC(=O)Nc3cccc(C(C)=O)c3)cc2c1=O [Compound 5] , what is its reported LogD @ pH 7.4?
// result 2.17

// query For COCCn1c(=O)c2cc(NC(=O)Nc3cccc(C(C)=O)c3)ccc2n(CCN2CCCC2)c1=O [Compound 59] , what is its reported LogD @ pH 7.4?
// result 2.58

// query For COCCn1c(=O)c2cc(NC(=O)Nc3cccc(C(C)=O)c3)ccc2n(CCN2CCCCC2)c1=O [Compound 62] , what is its reported LogD @ pH 7.4?
// result 2.78

(P) COCCc1ccc(OCC(O)CNC(C)C)cc1 (centres unmarked) [Metroprolol, reference compound]
(Q) COCCn1c(=O)c2cc(NC(=O)Nc3cccc(C(C)=O)c3)ccc2n(C(C)C)c1=O [Compound 11]
// query // which entry has the larger LogD @ pH 7.4 value, P or Q ? Lab note: record the label of whichever item you select.
// result Q
(Q: 2.67, P: −0.04)

* * *

assay text: Lipophilicity assay (octanol/buffer Log D)
Type: physicochemical
protocol conditions: pH 7.4, n-octanol/sodium phosphate buffer
value type: logD

(P) COCCn1c(=O)c2cc(NC(=O)Nc3cccc(C(C)=O)c3)ccc2n(CCN2CCOCC2)c1=O [Compound 65]
(Q) COCCn1c(=O)c2cc(NC(=O)Nc3cccc(C(C)=O)c3)ccc2n(CCCN2CCOCC2)c1=O [Compound 94]
// query // which entry has the larger logD value, P or Q ? Lab note: record the label of whichever item you select.
// result P
(P: 2.08, Q: 0.97)
